# Test system: Botulinum neurotoxin type F light chain protease (Clostridium botulinum)
# ASSAY PROCEDURE: inhibition of botulinum toxin F LC protease – biochemical, flow cytometry, cherry pick 1, confirmation (AID 602140)
# EXPERIMENTAL SETUP: multiplex microsphere protease cleavage assay, at 10 µM, stronger effect = higher value
Some of the results follow. Activity calls are given as the source filed them. No rule for the calls is given here.
METRIC NAME: inhibition

> print(dat)
                                   molecule  metric.name        assay.value
1  CCCSc1nc2sc3c(c2c(=O)n1-c1ccc(OC)cc1)CCN(C)C3   inhibition    5.3% (inactive)
2  Cc1ccc(-c2nc(-c3cccnc3)sc2CC(=O)Nc2ccc(C)c(Cl)c2)cc1   inhibition  -18.6% (inactive)
3                    COCc1cc(=O)[nH]c(SC)n1   inhibition   -4.2% (inactive)
4  CC1CCc2c(sc3nc4n(c(=O)c23)CCS4)C1 (stereo not drawn)   inhibition   -5.8% (inactive)

Q) Which inhibition is listed for CCOCC(=O)NCc1ccc2c(c1)cc(C)n2C ?
A) -12.1% (inactive)

Q) Which inhibition is listed for Cc1onc(-c2ccccc2Cl)c1C(=O)NCCn1ccc2ccccc21 ?
A) -5.2% (inactive)

Q) Which inhibition is listed for COc1ccc(NS(=O)(=O)c2cc(C(=O)Nc3ccccc3C(=O)O)ccc2C)cc1 ?
A) -0.5% (inactive)

Q) Which inhibition is listed for OC(c1ccc(Cl)cc1)C(CN1CCOCC1)c1ccccc1 (stereo not drawn) ?
A) 3.4% (inactive)

Q) Which inhibition is listed for COCCn1nnnc1C(c1cc2ccc(OC)cc2[nH]c1=O)N1CCc2ccccc2C1 (stereo not drawn) ?
A) -9.6% (inactive)

Q) Which inhibition is listed for Clc1ccc(-c2ncc3ccccn23)c(Cl)c1 ?
A) -4.7% (inactive)

Q) Which inhibition is listed for COc1ccc(N(CC(=O)NCCSCc2cccc(Cl)c2)S(C)(=O)=O)cc1 ?
A) -2.3% (inactive)

Q) Which inhibition is listed for Cc1c(NC(=O)c2cccnc2)c(=O)n(-c2ccccc2)n1C ?
A) 2.7% (inactive)

Q) Which inhibition is listed for CCOc1nnc(C)c2c(C)n(-c3cccc(Cl)c3)nc12 ?
A) 18.1% (inactive)

---

Reported inhibition values are given for each entry in this list.
# Test system: Botulinum neurotoxin type F light chain protease (Clostridium botulinum)
# ASSAY PROCEDURE: inhibition of botulinum toxin F LC protease – biochemical, flow cytometry, cherry pick 1, confirmation (AID 602140)
# EXPERIMENTAL SETUP: multiplex microsphere protease cleavage assay, at 10 µM, stronger effect = higher value
The other results are listed elsewhere or left out.
Entry rule: numbers only, all in %.

Look over these answered cases.
> print(dat)
                                   molecule  metric.name  assay.value
1  CC(=O)c1cccc(NC(=O)N2CCCC2C(=O)NCCc2ccccc2)c1 (stereo not given)   inhibition            0
2       Cc1ccc2[nH]cc(CCNC(=O)C3CCCCC3)c2c1   inhibition          0.6

Q) Which inhibition is listed for COc1cc2cc(CN(CCN3CCCC3)C(=O)Nc3ccccc3Cl)c(=O)[nH]c2cc1OC ?
A) 0.8

Q) Which inhibition is listed for Cc1ccc(C(=O)COc2cccc(NC(=O)c3ccco3)c2)cc1 ?
A) -7.2

Q) Which inhibition is listed for COC(=O)CN(c1nc(C)c(Cl)c(OC)n1)S(=O)(=O)c1ccc(C)cc1 ?
A) -0.3

---

# Test system: Botulinum neurotoxin type F light chain protease (Clostridium botulinum)
# ASSAY PROCEDURE: inhibition of botulinum toxin F LC protease – biochemical, flow cytometry, cherry pick 1, confirmation (AID 602140)
# EXPERIMENTAL SETUP: multiplex microsphere protease cleavage assay, at 10 µM, stronger effect = higher value
Some of the results follow.
METRIC NAME: inhibition (%)
Entry rule: numbers only, all in %.

Look over these answered cases.
> print(dat)
                                   molecule                               target.desc  endpoint.unit  assay.value
1  O=S(=O)(NC1CCCCC1N1CCC(O)CC1)c1ccc(Cl)cc1 (stereo not given)  Botulinum neurotoxin type F light chain protease (Clostridium botulinum)              %          2.2
2                  Nc1ccccc1Sc1cc(Cl)nnc1Cl  Botulinum neurotoxin type F light chain protease (Clostridium botulinum)              %         -1.4
3  COc1ccccc1CNC(=O)C1Cc2ccccc2C(=O)O1 (stereo not given)  Botulinum neurotoxin type F light chain protease (Clostridium botulinum)              %         -1.3
4  Cc1cccc2cc3c(N)c(C(=O)N4CCCc5ccccc54)sc3nc12  Botulinum neurotoxin type F light chain protease (Clostridium botulinum)              %          0.3
5            COc1ccc(Br)cc1CNCCc1cccc(Cl)c1  Botulinum neurotoxin type F light chain protease (Clostridium botulinum)              %          -10

Q) GET /values?readout=inhibition&system=Botulinum neurotoxin type F light chain protease (Clostridium botulinum)&item= O=C(Nc1nnc(CCc2ccccc2)s1)C1CCCO1 (stereo not given)
A) -7

Q) GET /values?readout=inhibition&system=Botulinum neurotoxin type F light chain protease (Clostridium botulinum)&item= O=C(O)c1cc(S(=O)(=O)NC2CCCc3ccccc32)ccc1O (stereo not given)
A) -1.4

Q) GET /values?readout=inhibition&system=Botulinum neurotoxin type F light chain protease (Clostridium botulinum)&item= CCCN1C2CCCC1CC(NC(=O)c1cccc(OC)c1)C2 (stereo not given)
A) 0.9

Q) GET /values?readout=inhibition&system=Botulinum neurotoxin type F light chain protease (Clostridium botulinum)&item= O=C(CN1CCCCCC1)Nc1c(Cl)cc(Cl)cc1Cl
A) -7.6

Q) GET /values?readout=inhibition&system=Botulinum neurotoxin type F light chain protease (Clostridium botulinum)&item= COc1ccccc1-n1c(-c2cc(-c3ccco3)[nH]n2)n[nH]c1=S
A) 4
